Each record here notes measured Solubilities(/100 g, toluene).
Assay: Solubility of compounds in toluene
Format: physicochemical
value kind: Solubilities(/100 g, toluene) (g/100 g toluene)

structure smiles string	operator symbol	result
CCc1cccc(CC)c1N(c1ccc(C(C)(C)C)cc1)c1cc(N(c2ccc(C(C)(C)C)cc2)c2c(CC)cccc2CC)c2ccc3c(N(c4ccc(C(C)(C)C)cc4)c4c(CC)cccc4CC)cc(N(c4ccc(C(C)(C)C)cc4)c4c(CC)cccc4CC)c4ccc1c2c43	=	25.9
Cc1cc2ccccc2cc1N(c1ccc(C(C)(C)C)cc1)c1cc(N(c2ccc(C(C)(C)C)cc2)c2cc3ccccc3cc2C)c2ccc3c(N(c4ccc(C(C)(C)C)cc4)c4cc5ccccc5cc4C)cc(N(c4ccc(C(C)(C)C)cc4)c4cc5ccccc5cc4C)c4ccc1c2c43	>	2.5

* * *

Each record here notes measured Emission peak of the film.
Assay: Absorption and emission spectrum in spin-coated film
Assay type: physicochemical
Details: spin-coated film
value kind: Emission peak of the film (nm)

compound	result
Cc1cccc(C)c1N(c1ccccc1)c1cc(N(c2ccccc2)c2c(C)cccc2C)c2ccc3c(N(c4ccccc4)c4c(C)cccc4C)cc(N(c4ccccc4)c4c(C)cccc4C)c4ccc1c2c43	497
Cc1cccc(C)c1N(c1ccc(C(C)(C)C)cc1)c1cc(N(c2ccc(C(C)(C)C)cc2)c2c(C)cccc2C)c2ccc3c(N(c4ccc(C(C)(C)C)cc4)c4c(C)cccc4C)cc(N(c4ccc(C(C)(C)C)cc4)c4c(C)cccc4C)c4ccc1c2c43	497
CCCCCCCCc1ccc(-c2cc(C(C)C)ccc2N(c2cc(F)c(F)c(F)c2)c2cc(N(c3cc(F)c(F)c(F)c3)c3ccc(C(C)C)cc3-c3ccc(CCCCCCCC)cc3)c3ccc4c(N(c5cc(F)c(F)c(F)c5)c5ccc(C(C)C)cc5-c5ccc(CCCCCCCC)cc5)cc(N(c5cc(F)c(F)c(F)c5)c5ccc(C(C)C)cc5-c5ccc(CCCCCCCC)cc5)c5ccc2c3c54)cc1	490
CCCCCCCCc1ccc(N(c2ccc(C(C)C)cc2-c2cc(F)c(F)c(F)c2)c2cc(N(c3ccc(CCCCCCCC)cc3)c3ccc(C(C)C)cc3-c3cc(F)c(F)c(F)c3)c3ccc4c(N(c5ccc(CCCCCCCC)cc5)c5ccc(C(C)C)cc5-c5cc(F)c(F)c(F)c5)cc(N(c5ccc(CCCCCCCC)cc5)c5ccc(C(C)C)cc5-c5cc(F)c(F)c(F)c5)c5ccc2c3c54)cc1	504
CCCCCCC1(CCCCCC)c2ccccc2-c2ccc(-c3ccccc3-c3ccc4c5cccc6c(-c7ccccc7-c7ccc8c(c7)C(CCCCCC)(CCCCCC)c7ccccc7-8)ccc(c7cccc3c74)c65)cc21 [comparative compound 1, reference compound]	543

* * *

Test: Absorption spectrum, emission spectrum and extinction coefficient in toluene solution
Assay type: physicochemical
Each record here notes measured Absorption peak of the toluene solution.
value kind: Absorption peak of the toluene solution (nm)

molecule	result
CCc1cccc(CC)c1N(c1cc(C(C)(C)C)cc(C(C)(C)C)c1)c1cc(N(c2cc(C(C)(C)C)cc(C(C)(C)C)c2)c2c(CC)cccc2CC)c2ccc3c(N(c4cc(C(C)(C)C)cc(C(C)(C)C)c4)c4c(CC)cccc4CC)cc(N(c4cc(C(C)(C)C)cc(C(C)(C)C)c4)c4c(CC)cccc4CC)c4ccc1c2c43 [compound 8]	484
CCCCCCCCc1ccc(-c2cc(C(C)C)ccc2N(c2cc(F)c(F)c(F)c2)c2cc(N(c3cc(F)c(F)c(F)c3)c3ccc(C(C)C)cc3-c3ccc(CCCCCCCC)cc3)c3ccc4c(N(c5cc(F)c(F)c(F)c5)c5ccc(C(C)C)cc5-c5ccc(CCCCCCCC)cc5)cc(N(c5cc(F)c(F)c(F)c5)c5ccc(C(C)C)cc5-c5ccc(CCCCCCCC)cc5)c5ccc2c3c54)cc1 [compound 13]	473
CCc1cccc(CC)c1N(c1ccc(C(C)(C)C)cc1)c1cc(N(c2ccc(C(C)(C)C)cc2)c2c(CC)cccc2CC)c2ccc3c(N(c4ccc(C(C)(C)C)cc4)c4c(CC)cccc4CC)cc(N(c4ccc(C(C)(C)C)cc4)c4c(CC)cccc4CC)c4ccc1c2c43 [compound 9]	482
CCCCCCC1(CCCCCC)c2ccccc2-c2ccc(-c3ccccc3-c3ccc4c5cccc6c(-c7ccccc7-c7ccc8c(c7)C(CCCCCC)(CCCCCC)c7ccccc7-8)ccc(c7cccc3c74)c65)cc21 [comparative compound 1, reference compound]	461
Cc1cccc(C)c1N(c1ccccc1)c1cc(N(c2ccccc2)c2c(C)cccc2C)c2ccc3c(N(c4ccccc4)c4c(C)cccc4C)cc(N(c4ccccc4)c4c(C)cccc4C)c4ccc1c2c43 [compound 1]	475
CCCCCCCCc1ccc(-c2cc(N(c3ccc(C(C)(C)C)cc3)c3ccc(C(C)(C)C)cc3)ccc2N(c2cc(F)c(F)c(F)c2)c2cc(N(c3cc(F)c(F)c(F)c3)c3ccc(N(c4ccc(C(C)(C)C)cc4)c4ccc(C(C)(C)C)cc4)cc3-c3ccc(CCCCCCCC)cc3)c3ccc4c(N(c5cc(F)c(F)c(F)c5)c5ccc(N(c6ccc(C(C)(C)C)cc6)c6ccc(C(C)(C)C)cc6)cc5-c5ccc(CCCCCCCC)cc5)cc(N(c5cc(F)c(F)c(F)c5)c5ccc(N(c6ccc(C(C)(C)C)cc6)c6ccc(C(C)(C)C)cc6)cc5-c5ccc(CCCCCCCC)cc5)c5ccc2c3c54)cc1 [compound 18]	492
CC(C)c1ccc(-c2cc(-c3cc(C(C)(C)C)cc(C(C)(C)C)c3)ccc2N(c2cc(F)c(F)c(F)c2)c2cc(N(c3cc(F)c(F)c(F)c3)c3ccc(-c4cc(C(C)(C)C)cc(C(C)(C)C)c4)cc3-c3ccc(C(C)C)cc3)c3ccc4c(N(c5cc(F)c(F)c(F)c5)c5ccc(-c6cc(C(C)(C)C)cc(C(C)(C)C)c6)cc5-c5ccc(C(C)C)cc5)cc(N(c5cc(F)c(F)c(F)c5)c5ccc(-c6cc(C(C)(C)C)cc(C(C)(C)C)c6)cc5-c5ccc(C(C)C)cc5)c5ccc2c3c54)cc1 [compound 14]	475
CCCCCCCCc1ccc(N(c2ccc(C(C)C)cc2-c2cc(F)c(F)c(F)c2)c2cc(N(c3ccc(CCCCCCCC)cc3)c3ccc(C(C)C)cc3-c3cc(F)c(F)c(F)c3)c3ccc4c(N(c5ccc(CCCCCCCC)cc5)c5ccc(C(C)C)cc5-c5cc(F)c(F)c(F)c5)cc(N(c5ccc(CCCCCCCC)cc5)c5ccc(C(C)C)cc5-c5cc(F)c(F)c(F)c5)c5ccc2c3c54)cc1 [compound 20]	485
Cc1cccc(C)c1N(c1cc(C(C)(C)C)cc(C(C)(C)C)c1)c1cc(N(c2cc(C(C)(C)C)cc(C(C)(C)C)c2)c2c(C)cccc2C)c2ccc3c(N(c4cc(C(C)(C)C)cc(C(C)(C)C)c4)c4c(C)cccc4C)cc(N(c4cc(C(C)(C)C)cc(C(C)(C)C)c4)c4c(C)cccc4C)c4ccc1c2c43 [compound 5]	477
CC(C)(C)c1ccc2c(c1)c1cc(C(C)(C)C)cc3c1n2-c1cccc2c1B3c1cc3c4ccccc4c4ccccc4c3c3c4c5c6ccccc6c6ccccc6c5ccc4n-2c13 [E2]	507
CCCCCCCCc1ccc(-c2cc(OC)ccc2N(c2cc(F)c(F)c(F)c2)c2cc(N(c3cc(F)c(F)c(F)c3)c3ccc(OC)cc3-c3ccc(CCCCCCCC)cc3)c3ccc4c(N(c5cc(F)c(F)c(F)c5)c5ccc(OC)cc5-c5ccc(CCCCCCCC)cc5)cc(N(c5cc(F)c(F)c(F)c5)c5ccc(OC)cc5-c5ccc(CCCCCCCC)cc5)c5ccc2c3c54)cc1 [compound 16]	475
Cc1cccc(C)c1N(c1ccc(C(C)(C)C)cc1)c1cc(N(c2ccc(C(C)(C)C)cc2)c2c(C)cccc2C)c2ccc3c(N(c4ccc(C(C)(C)C)cc4)c4c(C)cccc4C)cc(N(c4ccc(C(C)(C)C)cc4)c4c(C)cccc4C)c4ccc1c2c43 [compound 3]	477

* * *

Experiment: Absorption and emission spectrum in spin-coated film
Type: physicochemical
Settings: spin-coated film

molecule	Absorption peak of the film [nm]
Cc1cccc(C)c1N(c1ccc(C(C)(C)C)cc1)c1cc(N(c2ccc(C(C)(C)C)cc2)c2c(C)cccc2C)c2ccc3c(N(c4ccc(C(C)(C)C)cc4)c4c(C)cccc4C)cc(N(c4ccc(C(C)(C)C)cc4)c4c(C)cccc4C)c4ccc1c2c43	479
CCc1cccc(CC)c1N(c1cc(C(C)(C)C)cc(C(C)(C)C)c1)c1cc(N(c2cc(C(C)(C)C)cc(C(C)(C)C)c2)c2c(CC)cccc2CC)c2ccc3c(N(c4cc(C(C)(C)C)cc(C(C)(C)C)c4)c4c(CC)cccc4CC)cc(N(c4cc(C(C)(C)C)cc(C(C)(C)C)c4)c4c(CC)cccc4CC)c4ccc1c2c43	482
Cc1cccc(C)c1N(c1ccccc1)c1cc(N(c2ccccc2)c2c(C)cccc2C)c2ccc3c(N(c4ccccc4)c4c(C)cccc4C)cc(N(c4ccccc4)c4c(C)cccc4C)c4ccc1c2c43	477
CCc1cccc(CC)c1N(c1ccc(C(C)(C)C)cc1)c1cc(N(c2ccc(C(C)(C)C)cc2)c2c(CC)cccc2CC)c2ccc3c(N(c4ccc(C(C)(C)C)cc4)c4c(CC)cccc4CC)cc(N(c4ccc(C(C)(C)C)cc4)c4c(CC)cccc4CC)c4ccc1c2c43	482
CC1CCC(C(C)C)C(Oc2ccc(-c3cc(C(C)C)ccc3N(c3cc(F)c(F)c(F)c3)c3cc(N(c4cc(F)c(F)c(F)c4)c4ccc(C(C)C)cc4-c4ccc(OC5CC(C)CCC5C(C)C)cc4)c4ccc5c(N(c6cc(F)c(F)c(F)c6)c6ccc(C(C)C)cc6-c6ccc(OC7CC(C)CCC7C(C)C)cc6)cc(N(c6cc(F)c(F)c(F)c6)c6ccc(C(C)C)cc6-c6ccc(OC7CC(C)CCC7C(C)C)cc6)c6ccc3c4c65)cc2)C1 (stereo not shown)	473
Cc1cccc(C)c1N(c1cc(C(C)(C)C)cc(C(C)(C)C)c1)c1cc(N(c2cc(C(C)(C)C)cc(C(C)(C)C)c2)c2c(C)cccc2C)c2ccc3c(N(c4cc(C(C)(C)C)cc(C(C)(C)C)c4)c4c(C)cccc4C)cc(N(c4cc(C(C)(C)C)cc(C(C)(C)C)c4)c4c(C)cccc4C)c4ccc1c2c43	476
CCCCCCCCc1ccc(-c2c(N(c3cc(F)c(F)c(F)c3)c3cc(N(c4cc(F)c(F)c(F)c4)c4ccc5ccccc5c4-c4ccc(CCCCCCCC)cc4)c4ccc5c(N(c6cc(F)c(F)c(F)c6)c6ccc7ccccc7c6-c6ccc(CCCCCCCC)cc6)cc(N(c6cc(F)c(F)c(F)c6)c6ccc7ccccc7c6-c6ccc(CCCCCCCC)cc6)c6ccc3c4c65)ccc3ccccc23)cc1	476
CCCCCCCCc1ccc(N(c2ccc(C(C)C)cc2-c2cc(F)c(F)c(F)c2)c2cc(N(c3ccc(CCCCCCCC)cc3)c3ccc(C(C)C)cc3-c3cc(F)c(F)c(F)c3)c3ccc4c(N(c5ccc(CCCCCCCC)cc5)c5ccc(C(C)C)cc5-c5cc(F)c(F)c(F)c5)cc(N(c5ccc(CCCCCCCC)cc5)c5ccc(C(C)C)cc5-c5cc(F)c(F)c(F)c5)c5ccc2c3c54)cc1	486
CCCCCCCCc1ccc(-c2cc(OC)ccc2N(c2cc(F)c(F)c(F)c2)c2cc(N(c3cc(F)c(F)c(F)c3)c3ccc(OC)cc3-c3ccc(CCCCCCCC)cc3)c3ccc4c(N(c5cc(F)c(F)c(F)c5)c5ccc(OC)cc5-c5ccc(CCCCCCCC)cc5)cc(N(c5cc(F)c(F)c(F)c5)c5ccc(OC)cc5-c5ccc(CCCCCCCC)cc5)c5ccc2c3c54)cc1	476
CCCCCCCCc1ccc(-c2cc(N(c3ccc(C(C)(C)C)cc3)c3ccc(C(C)(C)C)cc3)ccc2N(c2cc(F)c(F)c(F)c2)c2cc(N(c3cc(F)c(F)c(F)c3)c3ccc(N(c4ccc(C(C)(C)C)cc4)c4ccc(C(C)(C)C)cc4)cc3-c3ccc(CCCCCCCC)cc3)c3ccc4c(N(c5cc(F)c(F)c(F)c5)c5ccc(N(c6ccc(C(C)(C)C)cc6)c6ccc(C(C)(C)C)cc6)cc5-c5ccc(CCCCCCCC)cc5)cc(N(c5cc(F)c(F)c(F)c5)c5ccc(N(c6ccc(C(C)(C)C)cc6)c6ccc(C(C)(C)C)cc6)cc5-c5ccc(CCCCCCCC)cc5)c5ccc2c3c54)cc1	487
CCCCCCCCc1ccc(-c2cc(C(C)C)ccc2N(c2cc(F)c(F)c(F)c2)c2cc(N(c3cc(F)c(F)c(F)c3)c3ccc(C(C)C)cc3-c3ccc(CCCCCCCC)cc3)c3ccc4c(N(c5cc(F)c(F)c(F)c5)c5ccc(C(C)C)cc5-c5ccc(CCCCCCCC)cc5)cc(N(c5cc(F)c(F)c(F)c5)c5ccc(C(C)C)cc5-c5ccc(CCCCCCCC)cc5)c5ccc2c3c54)cc1	473
CCCCCCC1(CCCCCC)c2ccccc2-c2ccc(-c3ccccc3-c3ccc4c5cccc6c(-c7ccccc7-c7ccc8c(c7)C(CCCCCC)(CCCCCC)c7ccccc7-8)ccc(c7cccc3c74)c65)cc21 [comparative compound 1, reference compound]	464
CC(C)c1ccc(-c2cc(-c3cc(C(C)(C)C)cc(C(C)(C)C)c3)ccc2N(c2cc(F)c(F)c(F)c2)c2cc(N(c3cc(F)c(F)c(F)c3)c3ccc(-c4cc(C(C)(C)C)cc(C(C)(C)C)c4)cc3-c3ccc(C(C)C)cc3)c3ccc4c(N(c5cc(F)c(F)c(F)c5)c5ccc(-c6cc(C(C)(C)C)cc(C(C)(C)C)c6)cc5-c5ccc(C(C)C)cc5)cc(N(c5cc(F)c(F)c(F)c5)c5ccc(-c6cc(C(C)(C)C)cc(C(C)(C)C)c6)cc5-c5ccc(C(C)C)cc5)c5ccc2c3c54)cc1	471
